These entries and their values trace back to PubChem BioAssay.

We begin with a simple list: items and their reported inhibition.
- Target entity: Integrin beta-1 (Homo sapiens) + Integrin alpha-4 (Homo sapiens) (UniProt P13612+P05556)
- Sequence (P05556 whole entry, looked up): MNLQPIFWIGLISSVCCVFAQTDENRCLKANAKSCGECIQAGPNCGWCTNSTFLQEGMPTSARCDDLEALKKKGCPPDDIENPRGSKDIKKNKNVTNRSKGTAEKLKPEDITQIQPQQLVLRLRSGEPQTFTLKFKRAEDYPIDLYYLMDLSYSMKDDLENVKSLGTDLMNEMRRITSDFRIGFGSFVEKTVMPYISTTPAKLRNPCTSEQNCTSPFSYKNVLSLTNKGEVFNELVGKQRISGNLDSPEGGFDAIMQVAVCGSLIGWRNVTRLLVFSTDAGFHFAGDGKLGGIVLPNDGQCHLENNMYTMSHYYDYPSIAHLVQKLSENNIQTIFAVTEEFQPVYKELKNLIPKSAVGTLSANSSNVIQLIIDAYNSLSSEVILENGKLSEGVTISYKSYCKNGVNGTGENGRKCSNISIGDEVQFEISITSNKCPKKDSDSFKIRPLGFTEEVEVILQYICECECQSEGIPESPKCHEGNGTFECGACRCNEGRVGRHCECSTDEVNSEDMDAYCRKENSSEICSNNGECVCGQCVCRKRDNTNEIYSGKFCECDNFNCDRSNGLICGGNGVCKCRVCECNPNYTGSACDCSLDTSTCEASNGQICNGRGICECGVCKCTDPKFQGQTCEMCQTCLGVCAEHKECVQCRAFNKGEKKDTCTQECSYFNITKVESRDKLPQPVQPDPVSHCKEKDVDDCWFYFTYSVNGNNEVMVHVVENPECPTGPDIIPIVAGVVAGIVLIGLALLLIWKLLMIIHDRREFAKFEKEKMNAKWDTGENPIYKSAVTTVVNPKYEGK
- Sequence (P13612 whole entry, looked up): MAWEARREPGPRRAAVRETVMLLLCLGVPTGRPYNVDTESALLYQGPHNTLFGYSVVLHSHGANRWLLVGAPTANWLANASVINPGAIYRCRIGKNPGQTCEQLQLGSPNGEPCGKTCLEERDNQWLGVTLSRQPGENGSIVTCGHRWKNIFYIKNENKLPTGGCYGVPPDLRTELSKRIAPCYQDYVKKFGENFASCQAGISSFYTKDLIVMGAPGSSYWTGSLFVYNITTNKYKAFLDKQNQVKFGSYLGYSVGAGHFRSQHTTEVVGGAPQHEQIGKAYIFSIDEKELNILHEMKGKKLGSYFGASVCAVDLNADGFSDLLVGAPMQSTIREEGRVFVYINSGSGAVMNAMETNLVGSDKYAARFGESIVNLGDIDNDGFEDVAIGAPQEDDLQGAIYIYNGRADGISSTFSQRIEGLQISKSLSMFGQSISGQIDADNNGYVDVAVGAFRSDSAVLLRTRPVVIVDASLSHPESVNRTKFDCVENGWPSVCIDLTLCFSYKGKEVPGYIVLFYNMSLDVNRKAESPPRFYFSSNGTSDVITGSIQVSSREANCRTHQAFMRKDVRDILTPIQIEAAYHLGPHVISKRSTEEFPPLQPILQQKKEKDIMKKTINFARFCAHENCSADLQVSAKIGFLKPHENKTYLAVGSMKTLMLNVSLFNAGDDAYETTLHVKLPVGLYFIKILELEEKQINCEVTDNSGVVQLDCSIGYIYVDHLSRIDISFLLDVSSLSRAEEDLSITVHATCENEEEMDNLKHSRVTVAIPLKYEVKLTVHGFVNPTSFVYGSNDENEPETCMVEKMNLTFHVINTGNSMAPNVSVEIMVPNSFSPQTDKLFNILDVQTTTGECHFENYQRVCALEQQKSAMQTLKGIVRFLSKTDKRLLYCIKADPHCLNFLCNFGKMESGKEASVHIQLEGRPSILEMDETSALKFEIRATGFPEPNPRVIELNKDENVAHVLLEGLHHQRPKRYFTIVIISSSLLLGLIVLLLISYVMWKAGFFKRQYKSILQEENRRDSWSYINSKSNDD
- Test name: inhibition of HUTS-21 binding to VLA-4, pilot screen, VLA-4 allosteric modulator project, U937 cells, HUTS-21 mAb, flow cytometry, validation set (AID 2674);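 note: antibody binding induced by the VLA-4 ligand LDV present at three times its Kd; 0% = LDV ligand with antibody and no compound and 100% = antibody without LDV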
- Measurement context: HUTS-21 LIBS mAb binding, at 6.7 µM, stronger effect = higher value, binding induced by LDV ligand
Write the number in % without appending the unit.

| Compound | inhibition [%] |
| --- | --- |
| CN1CCCC(OC(=O)c2ccc3c(c2)OCCO3)C1 (stereo unspecified) | -8.64 |

Test system Integrin beta-1 (Homo sapiens) + Integrin alpha-4 (Homo sapiens) (UniProt P13612+P05556); read-out inhibition; what value for `CCC1(c2ccccc2)C(=O)NCNC1=O` ? 5.77

Test system Integrin beta-1 (Homo sapiens) + Integrin alpha-4 (Homo sapiens) (UniProt P13612+P05556); read-out inhibition; what value for `CN(CCc1cnn(C)c1)Cc1nc(CC2CC2)no1` ? -11.4

Test system Integrin beta-1 (Homo sapiens) + Integrin alpha-4 (Homo sapiens) (UniProt P13612+P05556); read-out inhibition; what value for `Cc1ccc2[nH]c3c(=O)n(CCCN4CCN(C)CC4)cnc3c2c1` ? 7.22

Test system Integrin beta-1 (Homo sapiens) + Integrin alpha-4 (Homo sapiens) (UniProt P13612+P05556); read-out inhibition; what value for `CCS(=O)(=O)Nc1cc(OC)c(OC)cc1Cc1nccc2cc(OC)c(OC)cc12` ? -9.63

Test system Integrin beta-1 (Homo sapiens) + Integrin alpha-4 (Homo sapiens) (UniProt P13612+P05556); read-out inhibition; what value for `O=C(NCc1ccccc1Cl)NC(=O)c1ccccc1` ? 6.46

* * *

- Test name: modulators of LAP4-GFP expression in yeast, primary screen, S. cerevisiae, multiplex flow cytometry (AID 1873)
- Measurement context: 3 h, at 10 µM, stronger effect = higher value
Records with an inconclusive call do not appear.
Metric name: GFP response vs DMSO (%)
Write the number in % without appending the unit.

| Compound | GFP response vs DMSO, % |
| --- | --- |
| Cc1ncc([N+](=O)[O-])n1CCO | 97.4 |
| Nc1nnc(-c2cccc(Cl)c2Cl)c(N)n1 | 100 |
| COC(=O)c1ccc(COc2ccc3c(C)c(C)c(=O)oc3c2C)o1 | 92.3 |
| Cn1c2c(c(=O)[nH]c1=O)C(c1ccc(O)cc1)C1=C(N2)c2ccccc2C1=O (configuration not stated) | 87.3 |
| Cc1ccc2[nH]c3c(c2c1)CN(C)CC3 | 97.4 |

Please look up its GFP response vs DMSO: `COc1ccc2oc(=O)c(-c3nc(C)cs3)cc2c1` 106

Please look up its GFP response vs DMSO: `COc1ccc(OC)c(-c2oc3ccccc3c(=O)c2O)c1` 110

* * *

- Test name: LAP4-GFP expression modulators in yeast, confirmation, cell-based, cherry picks, flow cytometry, mother/daughter gates (AID 2271);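 note: ratio of sample to DMSO plate mean so 100% equals DMSO level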
- Measurement context: S. cerevisiae LAP4-GFP strain, 3 h, at 10 µM, stronger effect = higher value, 100 means same as DMSO control
Metric name: GFP response relative to DMSO (%)
Write the number in % without appending the unit.

| Compound | Scale unit | GFP response relative to DMSO |
| --- | --- | --- |
| CC1(C)CC(=O)C(C(C2=C(O)CC(C)(C)CC2=O)c2cccs2)C(=O)C1 (stereo not given) | % | 100 |

// next entry
Please look up its GFP response relative to DMSO: `Oc1c(CN2CCN(c3ccccc3)CC2)cc(Br)c2cccnc12` 220

* * *

- Test name: inhibitors of CD8+ T cell-vesicle binding, pilot screen, LFA-1/ICAM-1 modulator project, MLPCN validation set, flow cytometry (AID 2523)
- Measurement context: 2C mouse CD8+ T cells, at 7 µM, stronger effect = lower value; measured here: CD8+/vesicle+ event percentage
Metric name: double positive events (%)
Write the number in % without appending the unit.

Look over these answered cases.
| Compound | Scale unit | double positive events |
| --- | --- | --- |
| CCOC(=O)c1oc2cc(OCC(N)=O)ccc2c(=O)c1-c1ccc(OC)c(OC)c1 | % | 62.1 |
| CC(C)(C)[C@]1(O)CCN2C[C@H]3c4ccccc4CCc4cccc(c43)[C@@H]2C1 | % | 35.9 |
| COc1cc2cc(C(=O)O)n(C)c2c(OC)c1OC | % | 54.5 |

Please look up its double positive events: `CC(=O)OCC(=O)[C@@]1(OC(C)=O)[C@@H](C)C[C@H]2[C@@H]3C[C@H](F)C4=CC(=O)C=C[C@]4(C)[C@@]3(F)[C@@H](O)C[C@@]21C` 61.9

Please look up its double positive events: `Nc1ccc(N=Nc2ccccc2)c(N)n1` 61.7

Please look up its double positive events: CC(=O)N1N=C(c2cccs2)CC1c1ccc(C)o1 (configuration not stated) 55.8

Please look up its double positive events: `C[C@]12CC[C@@H]3c4ccc(OS(=O)(=O)O)cc4CC[C@H]3[C@@H]1CCC2=O` 73.4

Please look up its double positive events: `CN(CCc1cnn(C)c1)Cc1nc(CC2CC2)no1` 58.1

Please look up its double positive events: CN(C)C(=O)C12CCC(C)(c3nc4ccccc4nc31)C2(C)C (configuration not stated) 62.9

Please look up its double positive events: `CCCCC[C@H](O)/C=C/[C@@H]1[C@@H](C/C=C\CCCC(=O)OC)[C@@H](O)C[C@H]1O` 59.2

Please look up its double positive events: CC(=O)NCCCC(=O)NC(CCC(=O)OCc1ccccc1)C(=O)OCc1ccccc1 (configuration not stated) 72.6

Please look up its double positive events: `COC(=O)c1ccc(CC(=O)c2ccc(O)cc2O)o1` 72.3

* * *

- Test name: RPL19A-GFP modulators, yeast TOR pathway, confirmation, cell-based, S. cerevisiae, flow cytometry, cherry picks, mother/daughter gates (AID 2270)
- Measurement context: S. cerevisiae RPL19A-GFP strain, 3 h, measured here: mother cell gate, at 10 µM, stronger effect = lower value, 100 = same GFP as DMSO wells
Metric name: GFP response vs DMSO (%)
Write the number in % without appending the unit.

| Compound | GFP response vs DMSO [%] |
| --- | --- |
| CCN(CC)CCCN(C(=O)c1ccc(Br)cc1)c1nc(-c2ccc(OC)cc2)cs1 | 96.9 |

Please look up its GFP response vs DMSO: `c1ccc(-c2cccc(-c3ccccn3)n2)nc1` 96.9

* * *

- Test name: LAP4-GFP expression modulators in yeast, confirmation, cell-based, cherry picks, flow cytometry, mother/daughter gates (AID 2271);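 note: ratio of sample to DMSO plate mean so 100% equals DMSO level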
- Measurement context: S. cerevisiae LAP4-GFP strain, 3 h, measured here: daughter cell gate response, at 10 µM, stronger effect = higher value, 100 means same as DMSO control
We begin with a simple list: items and their reported GFP response relative to DMSO.
Write the number in % without appending the unit.

| Molecule | GFP response relative to DMSO / % |
| --- | --- |
| COc1ccc(C(=O)NC(=S)Nc2ccc(CN3CCOCC3)cc2)cc1 | 99.1 |
| Cc1ccc(C2=NN(S(C)(=O)=O)C(c3ccc4c(c3)OCO4)C2)cc1 (stereo unspecified) | 115 |
| O=C(/C(=C/O)N=Nc1ccc(Cl)cc1)c1ccncc1 | 101 |
| O=C1CC(Sc2nnnn2C2CCCCC2)C(=O)N1c1ccccc1 (stereo unspecified) | 104 |
| COc1ccc(OC(=O)c2cc(S(=O)(=O)N3CCCC3)ccc2Cl)cc1 | 99.2 |

Please look up its GFP response relative to DMSO: `Cc1cccc2c1NC(=O)/C2=C\C(=O)c1cccs1` 148

Please look up its GFP response relative to DMSO: `COc1ccc(CC2=CC(=O)c3ccccc3C2=O)cc1` 99.3

Please look up its GFP response relative to DMSO: Cc1ccc(/C=C2\SC(=S)N(CC3CCCO3)C2=O)o1 (stereo unspecified) 167

Please look up its GFP response relative to DMSO: `CCNC(=O)/C(C#N)=C/c1c(N2CCOCC2)nc2ccccn2c1=O` 101

Please look up its GFP response relative to DMSO: `Cc1ccc(-c2csc(NC(=O)c3cccs3)n2)cc1` 99.1

Please look up its GFP response relative to DMSO: CCCc1[nH]nc2c1C(c1ccc(OC)c(CSC3=NCCS3)c1)C(C#N)=C(N)O2 (stereo unspecified) 109

* * *

- Test name: promoters of myeloid differentiation in arrested cells, primary screen, cell-based, GFP/MAC1 double positive, flow cytometry, validation set (AID 588685);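 note: compound exposure lasts four days before antibody staining and flow analysis; 0% = DMSO wells and 100% = 5 µM fulvestrant positive control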
- Measurement context: ER-HoxA9 marrow cells, stronger effect = higher value, normalized: vehicle 0, fulvestrant 100
Metric name: differentiation response (%)
Write the number in % without appending the unit.

| Molecule | Scale unit | differentiation response |
| --- | --- | --- |
| CC(C)Cc1ccc(C(C)C(=O)Nc2ccc(O)cc2)cc1 (stereo not given) | % | 0 |

Please look up its differentiation response: `COc1ccccc1-c1ccc(/C=C2/C=C(CC(C)C)OC2=O)o1` -22.8
